# Test system: KU812 (Chronic Myelogenous Leukemia)
# assaySummary: combination Emax (second highest fraction inhibited in the dose matrix, 72 h); higher = more inhibition; extreme values may be limits of the assay
Documented combination Emax across a set of compounds
Just the number, please, no unit attached.

Worked cases, combination Emax given:
Cn1cnc2c(F)c(Nc3ccc(Br)cc3Cl)c(C(=O)NOCCO)cc21 [Selumetinib] + CC(C)n1c(=O)n(C)c2cnc3cc(F)c(-c4ccc(OCCCN5CCCCC5)nc4)cc3c21 [AZD1390] (first compound max 10 µM, 7x7, partner max 0.3 µM) | 0.949
Cc1cc2ncnn2cc1Nc1ncc2c(n1)n(C1CCOCC1)c(=O)n2C [AZD7648] + CN(C)CCCOc1ccc(-c2ccc3ncc4c(c3c2)n(C2CCOCC2)c(=O)n4C)cn1 [AZD0156] (first compound max 10 µM, 7x7, partner max 1 µM) | 0.467
COc1nnc2ccc(N3CCC(c4ccc(OCCN5CCN(C)C(=O)[C@H]5C)cc4)CC3)nn12 [AZD5153] + CC1(C)CCC(CN2CCN(c3ccc(C(=O)NS(=O)(=O)c4ccc(NCC5CCOCC5)c([N+](=O)[O-])c4)c(Oc4cnc5[nH]ccc5c4)c3)CC2)=C(c2ccc(Cl)cc2)C1 [Venetoclax] (first compound max 1 µM, 7x7, partner max 1 µM) | 0.924

Now look at this entry.
In one line, give reported combination Emax of the entry Cc1c2c(nn1C)CSCc1cc(n(C)n1)CSc1cc(c3ccccc3c1)OCCCc1c(C(=O)O)n(C)c3c-2c(Cl)ccc13 [AZD5991] + C1CN(CCC1(C(=O)N[C@@H](CCO)C2=CC=C(C=C2)Cl)N)C3=NC=NC4=C3C=CN4 [Capivasertib] (first compound max 1 µM, 7x7, partner max 3 µM) .
0.858

Measured values drawn from the supplement of paper PMC11061612 for this set.
